- TESTED_ON: human TLR8 (Homo sapiens (Human), UniProt Q9NR97)
- Sequence (Q9NR97 27-1041): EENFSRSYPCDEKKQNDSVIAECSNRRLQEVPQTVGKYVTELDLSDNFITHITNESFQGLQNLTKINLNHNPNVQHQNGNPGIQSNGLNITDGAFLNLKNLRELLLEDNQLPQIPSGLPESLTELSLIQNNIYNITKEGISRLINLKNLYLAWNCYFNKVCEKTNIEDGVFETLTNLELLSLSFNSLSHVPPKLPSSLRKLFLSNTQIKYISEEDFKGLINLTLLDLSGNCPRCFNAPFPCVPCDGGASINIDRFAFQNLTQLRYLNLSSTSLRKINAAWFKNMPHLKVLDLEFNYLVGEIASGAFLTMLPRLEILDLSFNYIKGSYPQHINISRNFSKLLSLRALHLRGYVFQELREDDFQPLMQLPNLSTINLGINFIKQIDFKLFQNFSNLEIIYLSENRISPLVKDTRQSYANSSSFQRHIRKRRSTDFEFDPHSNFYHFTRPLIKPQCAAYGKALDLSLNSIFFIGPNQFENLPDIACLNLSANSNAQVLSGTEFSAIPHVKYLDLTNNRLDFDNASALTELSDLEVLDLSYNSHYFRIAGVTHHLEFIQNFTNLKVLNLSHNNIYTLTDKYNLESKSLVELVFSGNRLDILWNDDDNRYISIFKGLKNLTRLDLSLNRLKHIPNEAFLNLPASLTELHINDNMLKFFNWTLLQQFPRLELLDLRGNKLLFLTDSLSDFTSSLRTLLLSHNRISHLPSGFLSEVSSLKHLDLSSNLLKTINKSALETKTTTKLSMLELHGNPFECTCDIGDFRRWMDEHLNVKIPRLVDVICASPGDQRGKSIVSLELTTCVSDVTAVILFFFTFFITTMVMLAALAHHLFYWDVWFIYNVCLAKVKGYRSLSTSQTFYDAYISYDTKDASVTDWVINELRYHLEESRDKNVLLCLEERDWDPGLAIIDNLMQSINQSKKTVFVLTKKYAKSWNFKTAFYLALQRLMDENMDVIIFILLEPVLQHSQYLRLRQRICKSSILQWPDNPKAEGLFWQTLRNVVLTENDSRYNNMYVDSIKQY
- MEASUREMENT_DESCRIPTION: TLR8 inhibition reporter assay (HEK-Blue SEAP);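 note: SEAP driven by IFN-β minimal promoter carrying NF-κB and AP-1 sites, compounds dosed 0.05 nM to 50 µM for 22 h, inhibition scaled between agonist-plus-DMSO and reference-inhibitor wells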
- CONDITION_SUMMARY: read-out: TLR8 IC50; HEK-Blue human TLR8 cells, R848 15.9 μM
A collection of compounds and their measured IC50
Report as a plain number; the unit nM is understood.

> print(dat)
                                   compound  result.value
1  Cc1c(-c2[nH]c3ccc(N4C[C@H]5C[C@@H]4CN5)nc3c2C(C)C)cn2ncnc2c1C          0.51
2  CNCC(=O)N1CCN(c2ccc3[nH]c(-c4cn5ncnc5c(C)c4C)c(C(C)C)c3n2)CC1          0.63

Task item: Please give the measured IC50 for this compound: CCCCN(CC(=O)N1CCN(c2ccc3[nH]c(-c4cn5ncnc5c(C)c4C)c(C(C)C)c3n2)CC1)C(C)C
Reply: 11

Task item: Please give the measured IC50 for this compound: Cc1c(-c2[nH]c3ccc(N4C[C@H](C)N(C(=O)CN(CCO)C(C)(C)C)C[C@H]4C)nc3c2C(C)C)cn2ncnc2c1C
Reply: 36

Task item: Please give the measured IC50 for this compound: Cc1c(-c2[nH]c3ccc(N4CCN(C(C)C)C[C@@H]4C)nc3c2C(C)C)cn2ncnc2c1C
Reply: 1.7

Task item: Please give the measured IC50 for this compound: Cc1c(-c2[nH]c3ccc(C4CCC(N5CC(O)C5)CC4)nc3c2C(C)C)cn2ncnc2c1C (stereo not shown) [Example 1046]
Reply: 2.4

Task item: Please give the measured IC50 for this compound: Cc1c(-c2[nH]c3ccc(N4C[C@@H](C)N(C(=O)CCN(C)C)C[C@H]4C)nc3c2C(C)C)cn2ncnc2c1C
Reply: 14
